Provenance of the data: PubChem BioAssay (Tox21)

Measurement description: cAMP Responsive Elements (CRE) small molecule agonists, cell-based qHTS assay: qHTS cell viability counter screen (AID 2060914);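 note: viability read after 3 h of compound exposure; nearly all actives have a fitted effect of over 50% in size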; for activity change, negative = cytotoxicity: % is set by controls: 0 for no effect and ±100 for the full control effect
Protocol conditions: CRE-bla HEK293T viability, CellTiter-Glo luminescence, 5 h; series mostly up to 92.4 µM
Results filed as inconclusive are left out. Activity calls are given as the source filed them. Calls come from the whole dose curve; as a rule, active = well fitted cell-killing curve with a large enough effect in the repeat runs; inconclusive = weak or mixed curves, or effect the other way; inactive = flat fitted curve, though single readings scatter.
Measured quantity: activity change, negative = cytotoxicity

Recorded activity change, negative = cytotoxicity, per entry:
>  <Molecule>
Cc1nc(Nc2ncc(C(=O)Nc3c(C)cccc3Cl)s2)cc(N2CCN(CCO)CC2)n1

>  <Result>
inactive

$$$$
>  <Molecule>
O=C(c1ccccc1)C1CCC1

>  <Result>
inactive

$$$$
>  <Molecule>
CC(C)(C)C(=O)Oc1ccc(S(=O)(=O)Nc2ccccc2C(=O)NCC(=O)O)cc1

>  <Result>
inactive

$$$$
>  <Molecule>
NC(=O)NS(=O)(=O)c1ccc(N)cc1

>  <Result>
inactive

$$$$
>  <Molecule>
CCOCCn1c(C2CCN(CCc3ccc(C(C)(C)C(=O)O)cc3)CC2)nc2ccccc21

>  <Result>
inactive

$$$$

// returns reported activity change, negative = cytotoxicity for input O=C1NC2CCCCN2C12CCN(CCCN1c3ccccc3CCc3ccc(Cl)cc31)CC2 (centres undefined) inactive

Moving on to the next molecule: CC1=CCC(C(C)C)C=C1 (centres undefined) inactive

Moving on to the next molecule: COC(=O)C(C)=O inactive

Moving on to the next molecule: CC/C=C\CCCCO inactive

Moving on to the next molecule: CNS(=O)(=O)CCc1ccc2[nH]cc(C3CCN(C)CC3)c2c1 inactive

Moving on to the next molecule: O=C(O)c1cccc(C(=O)O)c1 inactive

Moving on to the next molecule: Oc1ccc(-c2ccc(O)cc2)cc1 inactive

Moving on to the next molecule: O=C1c2c(O)ccc(Nc3ccc(CCO)cc3)c2C(=O)c2c([N+](=O)[O-])ccc(O)c21 inactive

Moving on to the next molecule: CCCCCCC(C)Nc1ccc(Nc2ccccc2)cc1 (centres undefined) inactive

Moving on to the next molecule: CC(CN1CC(=O)NC(=O)C1)N1CC(=O)NC(=O)C1 (centres undefined) inactive

Moving on to the next molecule: O=C(O)CCN(C1(C(=O)NO)CCCC1)S(=O)(=O)c1ccc(Oc2ccc(F)cc2)cc1 inactive

Moving on to the next molecule: CN1[C@@H]2CC(OC(=O)[C@H](CO)c3ccccc3)C[C@H]1[C@@H]1O[C@@H]12 (some centres undefined) inactive

Moving on to the next molecule: CCCCC(CC)COP(=O)(O)OCC(CC)CCCC (centres undefined) inactive

Moving on to the next molecule: c1ccc(-c2ccc(-c3ccccc3)cc2)cc1 0.504% [at 18.9 µM] (inactive)

Moving on to the next molecule: Nc1cc([N+](=O)[O-])ccc1Cl inactive

Moving on to the next molecule: CCCCC(CC)COP(=O)(OCC(CC)CCCC)OCC(CC)CCCC (centres undefined) inactive

====

Measurement description: cAMP Responsive Elements (CRE) small molecule agonists, cell-based qHTS assay: qHTS cell viability counter screen (AID 2060914); note: potency is the fitted concentration of half-maximal effect;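 note: viability read after 3 h of compound exposure; nearly all actives have a fitted effect of over 50% in size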
Protocol conditions: CRE-bla HEK293T viability, CellTiter-Glo luminescence, 5 h; series mostly up to 92.4 µM
Results filed as inconclusive are left out. Activity calls are given as the source filed them. Calls come from the whole dose curve; as a rule, active = well fitted cell-killing curve with a large enough effect in the repeat runs; inconclusive = weak or mixed curves, or effect the other way; inactive = flat fitted curve, though single readings scatter.
Answer each item with its documented Potency.

// returns reported Potency for input CCCCCCCCCCCCCCCC[N+](C)(C)CCN(Cc1ccc(OC)cc1)c1ncccn1 26.6 µM (active)

Moving on to the next molecule: O=C(Nc1ncc([N+](=O)[O-])s1)c1cccs1 11.9 µM (active)

Moving on to the next molecule: NC(=NCCCCCCN=C(N)/N=C(\N)Nc1ccc(Cl)cc1)/N=C(\N)Nc1ccc(Cl)cc1 48.1 µM (active)

Moving on to the next molecule: CCN(Cc1cccc(S(=O)(=O)O)c1)c1ccc(C(=C2C=CC(=[N+](CC)Cc3cccc(S(=O)(=O)O)c3)C=C2)c2ccccc2S(=O)(=O)[O-])cc1 38.7 µM (active)

Moving on to the next molecule: Cc1ccc2ncccc2c1 54.5 µM (active)

====

Measurement description: cAMP Responsive Elements (CRE) small molecule agonists, cell-based qHTS assay: qHTS cell viability counter screen (AID 2060914);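 note: viability read after 3 h of compound exposure; nearly all actives have a fitted effect of over 50% in size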; for activity change, negative = cytotoxicity: % is set by controls: 0 for no effect and ±100 for the full control effect
Protocol conditions: CRE-bla HEK293T viability, CellTiter-Glo luminescence, 5 h; series mostly up to 92.4 µM
Results filed as inconclusive are left out. Activity calls are given as the source filed them. Calls follow the shape of the dose curve; as a rule, active = well fitted cell-killing curve with a large enough effect in the repeat runs; inconclusive = weak or mixed curves, or effect the other way; inactive = flat fitted curve, though single readings scatter.
Measured quantity: activity change, negative = cytotoxicity

>  <Molecule>
CCCCCC(=O)OCC

>  <activity change, negative = cytotoxicity>
inactive

$$$$
>  <Molecule>
CC(C)(C)C(=O)C(=O)O

>  <activity change, negative = cytotoxicity>
inactive

$$$$
>  <Molecule>
CO[Si](CCC1CCC2OC2C1)(OC)OC (configuration not stated)

>  <activity change, negative = cytotoxicity>
inactive

$$$$
>  <Molecule>
CCCCCCOC(=O)c1ccccc1O

>  <activity change, negative = cytotoxicity>
inactive

$$$$
>  <Molecule>
O=C1CC[C@@H](C(=O)O)N1

>  <activity change, negative = cytotoxicity>
inactive

$$$$

// returns reported activity change, negative = cytotoxicity for input NS(=O)(=O)c1cc(C2(O)NC(=O)c3ccccc32)ccc1Cl (configuration not stated) inactive

Moving on to the next molecule: C[C@H](CCC(=O)O)[C@H]1CC[C@H]2[C@@H]3C(=O)C[C@@H]4CC(=O)CC[C@]4(C)[C@H]3CC(=O)[C@]12C inactive

Moving on to the next molecule: CC(C)C[C@H](NC(=O)OCC1c2ccccc2-c2ccccc21)C(=O)O inactive

Moving on to the next molecule: CC(=O)c1ccccc1[N+](=O)[O-] inactive

Moving on to the next molecule: CCCC(CCC)(C(=O)OCC)C(=O)OCC inactive

Moving on to the next molecule: O=Cc1ccccc1S(=O)(=O)O inactive

====

Measurement description: cAMP Responsive Elements (CRE) small molecule agonists, cell-based qHTS assay: qHTS cell viability counter screen (AID 2060914);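 note: viability read after 3 h of compound exposure; nearly all actives have a fitted effect of over 50% in size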; for activity change, negative = cytotoxicity: % is set by controls: 0 for no effect and ±100 for the full control effect
Protocol conditions: CRE-bla HEK293T viability, CellTiter-Glo luminescence, 5 h; series mostly up to 92.4 µM
Excerpt: National Center for Advancing Translational Sciences [NCATS] Division of Preclinical Innovation [DPI] U.S. Environmental Protection Agency [EPA] National Institutes of Environmental Health Sciences [NIEHS] National Toxicology Program [NTP] U.S. Food and Drug Administration [FDA] CREB (cyclic-AMP Responsive Element Binding Protein) is a cellular transcription factor. […] The activation of the report gene under culture conditions can be detected by fluorescence intensity. […]
Records with an inconclusive call do not appear. Active and inactive are the calls of the source. The call rests on the fitted dose curve; in most records, active means well fitted cell-killing curve with a large enough effect in the repeat runs; inconclusive means weak or mixed curves, or effect the other way; inactive means flat fitted curve, though single readings scatter.
Measured quantity: activity change, negative = cytotoxicity

Recorded activity change, negative = cytotoxicity, per entry:
>  <Compound>
CC(CO)(CO)CO

>  <Result>
inactive

$$$$
>  <Compound>
O=C(OCc1ccccc1)c1ccc(O)cc1

>  <Result>
inactive

$$$$
>  <Compound>
CCCCCCCCCCCCCCCCCCOCC(O)CO (centres undefined)

>  <Result>
inactive

$$$$
>  <Compound>
O=c1c(O)c(O)c1=O

>  <Result>
inactive

$$$$
>  <Compound>
COCCOC(=O)C1=C(C)NC(C)=C(C(=O)OC/C=C/c2ccccc2)C1c1cccc([N+](=O)[O-])c1 (centres undefined)

>  <Result>
inactive

$$$$
>  <Compound>
O[Si](c1ccccc1)(c1ccccc1)c1ccccc1

>  <Result>
inactive

$$$$
>  <Compound>
CCc1c(Br)c(Br)c(Br)c(Br)c1Br

>  <Result>
inactive

$$$$
>  <Compound>
CCCCC/C=C/CC(=O)OC

>  <Result>
inactive

$$$$
>  <Compound>
O=C1CCc2cc(OCCCCc3nnnn3C3CCCCC3)ccc2N1

>  <Result>
inactive

$$$$
>  <Compound>
CCCCCCCCSCCO

>  <Result>
inactive

$$$$

// returns reported activity change, negative = cytotoxicity for input CCOC(=O)OCC inactive

Moving on to the next compound: C[C@]12C=CC(=O)C=C1CC[C@@H]1[C@@H]2C(=O)C[C@@]2(C)[C@H]1CC[C@]2(O)C(=O)CO inactive

Moving on to the next compound: CCOC(=O)c1ccc(I)cc1 inactive

====

Measurement description: cAMP Responsive Elements (CRE) small molecule antagonists, cell-based qHTS assay: qHTS cell viability counter screen (AID 2060913); note: % is set by controls: 0 for no effect and ±100 for the full control effect; nearly all actives have a fitted effect of over 40% in size
Protocol conditions: CRE-bla HEK293T viability, CellTiter-Glo luminescence, 5 h; series mostly up to 92.4 µM
Inconclusive results are not listed. Activity calls are given as the source filed them. Calls follow the shape of the dose curve; as a rule, active = well fitted cell-killing curve with a large enough effect in the repeat runs; inconclusive = weak or mixed curves, or effect the other way; inactive = flat fitted curve, though single readings scatter.
Measured quantity: viability change, negative = cytotoxic

Recorded viability change, negative = cytotoxic, per entry:
>  <Molecule>
CC(C)C(=O)O

>  <Result>
inactive

$$$$
>  <Molecule>
CC(C)=CCC[C@](C)(O)[C@@H]1CC=C(C)CC1

>  <Result>
inactive

$$$$
>  <Molecule>
COc1ccc(N)c(OC)c1

>  <Result>
inactive

$$$$
>  <Molecule>
O=S(=O)(Oc1ccc(Cl)cc1Cl)c1ccccc1

>  <Result>
inactive

$$$$
>  <Molecule>
CC(S)C(=O)NCC(=O)O (centres undefined)

>  <Result>
inactive

$$$$

// returns reported viability change, negative = cytotoxic for input CCCCCCCCCCOCC(O)CN (centres undefined) inactive

Moving on to the next molecule: c1ccc2c(c1)ccc1ncccc12 inactive

Moving on to the next molecule: CO/N=C(/C(=O)N[C@@H]1C(=O)N2C(C(=O)O)=C(Cn3nnc(C)n3)CS[C@H]12)c1csc(N)n1 inactive

Moving on to the next molecule: OCCc1ccccn1 inactive
